Data origin, for the record: PubChem BioAssay (NCI)

Experiment: NCI Yeast Anticancer Drug Screen. Data for the sgs1 mgt1 strain (AID 161);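 further: 0% = growth of cultures given vehicle only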
Details: S. cerevisiae sgs1 mgt1 strain, at 50.0 µM, stronger effect = higher value
About 79,000 compounds went through this panel and 15% of them were active in at least one assay; those are over-represented in the sample as a whole.
Quantity Measured: growth inhibition (%)
Give just the numeric value; % need not be written.

- Compound: "C=CCSc1nc2ccc(NCn3c(=S)sc4ccccc43)cc2s1"
  Result Units: "%"
  growth inhibition: 85.7

--- query ---
I am curious: what growth inhibition value has been reported for O=C(O)CCC1CC1C(=O)c1ccccc1 (configuration not stated) ? -3.85

====

Assay: NCI Yeast Anticancer Drug Screen. Data for the mlh1 rad18 strain (AID 175)
Conditions: S. cerevisiae mlh1 rad18 strain growth inhibition; at 50.0 µM; stronger effect = higher value
Method: Growth inhibition of yeast strains with defined genetic alterations is measured as a screen for potential anti-cancer activity. Selected strains with alterations in DNA damage repair or cell cycle control were exposed to compounds and growth inhibition was measured relative to vehicle treated controls. The strain used in this assay is mlh1 rad18
Compounds without any hit were thinned out: in the full panel of roughly 79,000, 15% have a hit.
Quick list: growth inhibition per entry.
Numbers only; they are read as %.

Consider the worked cases shown below.
- Compound: "CCOC1(OCC)C(=O)N(c2ccc(Cl)c(Cl)c2)C(=O)N1c1ccc(Cl)c(Cl)c1"
  Result Units: "%"
  growth inhibition: -0.45
- Compound: "CC(=O)OC(CCN(C)C)c1ccccc1 (stereo unspecified)"
  Result Units: "%"
  growth inhibition: -5.45
- Compound: "N#CCC(=O)c1ccccc1C(=O)O"
  Result Units: "%"
  growth inhibition: 17.6
- Compound: "Cc1cc2nc(-c3cc4cc(Cl)cc(Cl)c4oc3=O)[nH]c2cc1C"
  Result Units: "%"
  growth inhibition: -0.4
- Compound: "C#CC1(O)c2ccccc2C(=O)c2ccccc21"
  Result Units: "%"
  growth inhibition: -2.35
- Compound: "CCOC(=O)c1c2cccccc-2nc1Nc1cccc2c(C)ccnc12"
  Result Units: "%"
  growth inhibition: 5.55
- Compound: "CC(=O)N(C)CC(c1c(C)[nH]c2ccccc12)c1c(C)[nH]c2ccccc12"
  Result Units: "%"
  growth inhibition: 40.7
- Compound: "COC(=O)C1=C(C)N(NC(=O)Nc2ccccc2)C2(N)N(NC(=O)Nc3ccccc3)C(C)=C(C(=O)OC)C12C(=O)OC (stereo unspecified)"
  Result Units: "%"
  growth inhibition: -2.8
- Compound: "Cc1ccc(S(=O)(=O)N(C)C(C(=O)O)c2ccccc2)cc1 (stereo unspecified)"
  Result Units: "%"
  growth inhibition: 3
- Compound: "O=C(O)c1cc2c(c(C(=O)O)c1O)CCCC2"
  Result Units: "%"
  growth inhibition: -4.85

So what's the measured growth inhibition for this one? COC1(c2ccccc2)OC(=O)C(C)(C)c2ccccc21 (stereo unspecified) 3.55
